System: Escherichia coli T-24a – tet(X4)
method summary: microbe, parasite or virus in culture
Assay type: cell-based
particulars: with tigecycline
Measured FICI, listed per entry.
observable: FICI

O=C(c1ccc(OCCN2CCCCC2)cc1)c1c(-c2ccc(O)cc2)sc2cc(O)ccc12: 1
[H]/N=C(/NCCCCC)N/N=C/c1c[nH]c2ccc(OC)cc12: 0.8
Cc1c2c(c(O)c3c(O)cccc13)C(=O)[C@]1(O)C(=O)C(C(N)=O)=C(O)[C@@H](N(C)C)[C@@H]1C2 [Anhydrotetracycline]: 0.8
C[C@]12CCC(=O)C=C1[C@@H]1C[C@@H]1[C@H]1[C@@H]3[C@@H]4C[C@@H]4[C@@]4(CCC(=O)O4)[C@@]3(C)CC[C@@H]12: 1
CN1CCN(CCCN2c3ccccc3Sc3ccc(Cl)cc32)CC1: 0.6
CN1CCN(CCCN2c3ccccc3Sc3ccc(C(F)(F)F)cc32)CC1: 0.6

* * *

target system: Tet(X4) (Escherichia coli)
method summary: FP competitive displacement of probe 6
Assay type: binding
particulars: IC50app, FP assay, 25 nM 6, 40 nM Tet(X4), 5 mM MgCl2, 1 μM FAD, 100 mM Tris pH 7.0, 0.01% Triton X-100
Measured IC50, listed per entry.
observable: IC50 (nM)

CN(C)c1cc(NC(=O)CNC(C)(C)C)c(O)c2c1C[C@H]1C[C@H]3[C@H](N(C)C)C(O)=C(C(N)=O)C(=O)[C@@]3(O)C(O)=C1C2=O: 18.6
C=C1c2cccc(O)c2C(=O)C2=C(O)[C@]3(O)C(=O)C(C(N)=O)=C(O)[C@@H](N(C)C)[C@@H]3[C@@H](O)[C@H]12: 311
CN(C)c1ccc(O)c2c1C[C@H]1C[C@H]3[C@H](N(C)C)C(O)=C(C(N)=O)C(=O)[C@@]3(O)C(O)=C1C2=O: 51.5
CN(C)[C@@H]1C(O)=C(C(N)=O)C(=O)[C@@]2(O)C(O)=C3C(=O)c4c(O)cccc4[C@@](C)(O)[C@H]3[C@H](O)[C@@H]12: 4430
CN(C)[C@@H]1C(O)=C(C(N)=O)C(=O)[C@@]2(O)C(O)=C3C(=O)c4c(O)ccc(Cl)c4[C@@H](O)[C@H]3C[C@@H]12: 29
C[C@H]1c2cccc(O)c2C(=O)C2=C(O)[C@]3(O)C(=O)C(C(N)=O)=C(O)[C@@H](N(C)C)[C@@H]3[C@@H](O)[C@@H]21: 1580
CN(C)c1cc(CNCC(C)(C)C)c(O)c2c1C[C@H]1C[C@H]3[C@H](N(C)C)C(O)=C(C(N)=O)C(=O)[C@@]3(O)C(O)=C1C2=O: 24.3
CN(C)[C@@H]1C(O)=C(C(N)=O)C(=O)[C@@]2(O)C(O)=C3C(=O)c4c(O)cccc4C[C@H]3C[C@@H]12: 47
CN(C)[C@@H]1C(O)=C(C(N)=O)C(=O)[C@@]2(O)C(O)=C3C(=O)c4c(O)cccc4[C@@](C)(O)[C@H]3C[C@@H]12: 69.6
CON(C)Cc1ccc(O)c2c1C[C@H]1C[C@H]3[C@H](N(C)C)C(O)=C(C(N)=O)C(=O)[C@@]3(O)C(O)=C1C2=O: 31.5
CN(C)[C@@H]1C(O)=C(C(N)=O)C(=O)[C@@]2(O)C(O)=C3C(=O)c4c(O)ccc(Cl)c4[C@@](C)(O)[C@H]3C[C@@H]12: 39
CN(C)[C@@H]1C(O)=C(C(N)=O)C(=O)[C@@]2(O)C(O)=C3C(=O)c4c(O)c(NC(=O)CN5CCCC5)cc(F)c4C[C@H]3C[C@@H]12: 13.7
Cc1c2c(c(O)c3c(O)cccc13)C(=O)[C@]1(O)C(=O)C(C(N)=O)=C(O)[C@@H](N(C)C)[C@@H]1C2 [Anhydrotetracycline]: 26.8

* * *

Tested on: E. coli TOP10 containing plasmid pBAD-TOPO-Tet(X4)
method summary: Broth microdilution MIC and checkerboard assay
Format: cell-based, Escherichia coli
particulars: with tigecycline; 0.2%w/v L-arabinose
observable: FICI

COc1cc(C)c2c(Oc3cccc(C(F)(F)F)c3)c(OC)cc(NC(C)CCCN)c2n1 (stereo not drawn) [Tafenoquine]: 0.8
O=C(c1ccc(OCCN2CCCCC2)cc1)c1c(-c2ccc(O)cc2)sc2cc(O)ccc12 [Raloxifene]: 1.1
Cc1c2c(c(O)c3c(O)cccc13)C(=O)[C@]1(O)C(=O)C(C(N)=O)=C(O)[C@@H](N(C)C)[C@@H]1C2 [Anhydrotetracycline]: 0.4
CN1CCN(CCCN2c3ccccc3Sc3ccc(C(F)(F)F)cc32)CC1 [Trifluoperazine]: 0.6
[H]/N=C(/NCCCCC)N/N=C/c1c[nH]c2ccc(OC)cc12 [Tegaserod]: 0.8
CN1CCN(CCCN2c3ccccc3Sc3ccc(Cl)cc32)CC1 [Prochlorperazine]: 0.8

* * *

Measured IC50, listed per entry.
target system: Tet(X4) (Escherichia coli, UniProt A0A3T0V9Y5)
method summary: FP competitive displacement of probe 6
Assay type: binding
particulars: IC50app, Tet(X4) (Polarization), 25 nM 6, 40 nM Tet(X4), 5 mM MgCl2, 1 μM FAD, 100 mM Tris pH 7.0, 0.01% Triton X-100
observable: IC50

NC(=O)c1ncn([C@@H]2O[C@H](CO)[C@@H](O)[C@H]2O)c1O: > 100 µM
CCC1(c2cnc[nH]2)Cc2ccccc2C1: > 100 µM
CCN(CC)CCNC(=O)c1c(C)[nH]c(/C=C2\C(=O)Nc3ccc(F)cc32)c1C: 45.6 µM
CC(CN(C)C)CN1c2ccccc2S(=O)(=O)c2ccccc21 (stereo not drawn): > 100 µM
Nc1nc2c(c(=O)[nH]1)N(C=O)C(CNc1ccc(C(=O)N[C@@H](CCC(=O)O)C(=O)O)cc1)CN2 (stereo partly drawn) [Calcium folinate]: > 100 µM
CN1CCN(CCCN2c3ccccc3Sc3ccc(C(F)(F)F)cc32)CC1: 55.6 µM
CN(C)CCCN1c2ccccc2Sc2ccc(C(F)(F)F)cc21: > 100 µM
COc1ccc2c(c1)N(C[C@H](C)CN(C)C)c1ccccc1S2: > 100 µM
C[C@@H](Oc1cc(-c2cnn(C3CCNCC3)c2)cnc1N)c1c(Cl)ccc(F)c1Cl: > 100 µM
O=C(NCc1c(F)cc(F)cc1F)c1cn2c(c(O)c1=O)C(=O)N1[C@H]3CC[C@H](C3)O[C@@H]1C2: 54.8 µM
Nc1ccc2cc3ccc(N)cc3nc2c1: > 100 µM
CC(=O)c1ccc2c(c1)N(CCCN1CCN(CCO)CC1)c1ccccc1S2: > 100 µM
c1ccc2c(c1)Nc1ccccc1S2: > 100 µM
Cn1cc(C2=C(c3cn(C4CCN(Cc5ccccn5)CC4)c4ccccc34)C(=O)NC2=O)c2ccccc21: 27.8 µM
N=C(N)c1ccc(/N=N/Nc2ccc(C(=N)N)cc2)cc1: > 100 µM
O=C(c1ccc(OCCN2CCCCC2)cc1)c1c(-c2ccc(O)cc2)sc2cc(O)ccc12: 19.8 µM
O=c1c2ccccc2[se]n1-c1ccccc1: 40.9 µM
COc1cc(C)c2c(Oc3cccc(C(F)(F)F)c3)c(OC)cc(NC(C)CCCN)c2n1 (stereo not drawn): 94.9 µM

* * *

target system: UniProt A0A3T0V9Y5
method summary: FP competitive displacement of probe 6
Assay type: binding
particulars: 25 nM 6, 40 nM Tet(X4), 5 mM MgCl2, 1 μM FAD, 100 mM Tris pH 7.0, 0.01% Triton X-100; read-out: IC50app, FP assay
observable: IC50 (nM)

Cc1c2c(c(O)c3c(O)c(Br)ccc13)C(=O)[C@@]1(O)C(=O)C(C(N)=O)=C(O)[C@@H](N(C)C)[C@@H]1C2 [9-Bromo-anhydrotetracycline]: 40.4

* * *

target system: UniProt A0A3T0V9Y5
method summary: biochemical
particulars: IC50, UPLC assay
pIC50: −log10 of the molar value.
observable: pIC50

CN(C)CCCN1c2ccccc2Sc2ccc(C(F)(F)F)cc21: 3.99

* * *

target system: Tet(X4) (Escherichia coli, UniProt A0A3T0V9Y5)
method summary: FP competitive displacement of probe 6
Format: binding
particulars: IC50app, Tet(X4) (Polarization), 25 nM 6, 40 nM Tet(X4), 5 mM MgCl2, 1 μM FAD, 100 mM Tris pH 7.0, 0.01% Triton X-100
pIC50: −log10 of the molar value.
Measured pIC50, listed per entry.
observable: pIC50

C=CC(=O)Nc1cccc(Oc2nc(Nc3ccc(N4CCN(C)CC4)cc3)nc3ccsc23)c1: 4.76
CN(C)CCCN1c2ccccc2Sc2ccc(Cl)cc21: < 4.00
CCCCC1C(=O)N(c2ccccc2)N(c2ccccc2)C1=O: < 4.00
CCN(CC)C(=S)SSC(=S)N(CC)CC: < 4.00
NCCc1ccc(O)c(O)c1: < 4.00
COc1ccnc(C[S+]([O-])c2nc3cc(-n4cccc4)ccc3[nH]2)c1C (centres unmarked): < 4.00
CN(C)CCCN1c2ccccc2Sc2ccccc21: < 4.00
[H]/N=C(/NCCCCC)N/N=C/c1c[nH]c2ccc(OC)cc12: 4.36
